Examples of binders with documented Kd follow.
# measured_on: T1, FC5DIE3IR recombinant protein
# T1 construct: Made in CHO-3E7 cells; also called FC5DIE31R; FC5DIE3R
# assay_info: ELISA on coated FC5DIE3IR, serial dilutions of purified mAb, OD 405 nm; fit One site - Specific binding with Hill slope; apparent Kd in the unit of the concentration axis (nM), the table itself prints no unit
readout_name: Kd

>  <binder>
anti-hNav1.7 mAb 3A8 (antibody, V domains shown, also called F233-3A8) VH: QVQLQQPGAELVKPGASVKLSCKASGYTFTNYWMHWVKQRPGQGLEWIGEINPSNGRANYNEKFKSKATLTVDKSSSTAYMQLSSLTSEDSAVYYCARSPYGYYDYWGQGTTLTVSS VL: DVLMTQTPLSLPVSLGDQASISCRSSQSLLHSNGNTYFHWYLQKPGQSPKLLIYKVSNRFFGVPDRFSGSGSGTDFTLKISRVEAEDLGVYFCSQITHVPLTFGAGTKLELK

>  <readout_name>
Kd

>  <result>
1.84 nM

$$$$
>  <binder>
mAb 1G5 (antibody, V domains shown, also called negative control) VH: QVQLQQPGAELVKPGASVKLSCKASGYTFTSYWINWVKQRPGQGLEWIGNIYPGNSNTNYNEKFKSKATLTVDKSSSTAYMQLSSLTSEDSAVYYCARRYYYDYDDAMDYWGQGTSVTVSS VL: DIVLTQSPASLAVSLGQRATISCRASESVDSYGNGFMHWYQQKPGQPPKLLIYRASNLESGIPARVSGSGSRTDFTLTINPVEADDVATYYCQQSNEDPWTFGGGTKLEIK

>  <readout_name>
Kd

>  <result>
5.04 nM

$$$$
>  <binder>
anti-hNav1.7 mAb 1H5 (antibody, V domains shown) VH: EVKLVESGGGLVKPGGSLKLSCAASGFTFRSYAMSWVRQTPEKGLEWVASISSGGSTYYPDSVKGRFTISRDNAGNILYLQMSSLRSEDTAMYYCARGYDGYYERIWYYAMDYWGQGTSVTVSS VL: DIVMTQSQKFMSTSVGDRVTVSCKASQNVGTIVAWYQQKPGQSPKALIYSASYRFSGVPDRFTGSGSGTDFTLTISNVQSEDLAEYFCQQYNTYPLTFGSGTKLEIK

>  <readout_name>
Kd

>  <result>
1.6 nM

$$$$
>  <binder>
anti-hNav1.7 mAb 2G11 (antibody, V domains shown) VH: QVQLQQPGAELVKPGASVKLSCKASGYTFTTYWMHWVKQRPGQGLEWIGEINPSNGRANYNEKFKSKATLTVDKSSSTAYMQLSSLTSEDSAVYYCLRSLGYFDYWGQGTTLTVSS VL: DVVMTQSPLSLPVSLGDQASISCRSSQSLVHSNGNTYLHWYLQKAGQSPKFLIYKVSNRFSGVPDRFSGSGSGTDFTLKISRVEAEDLGVYFCSQSTHVPYTFGGGTKLEIK

>  <readout_name>
Kd

>  <result>
0.847 nM

$$$$
